Collected self-cleavage kobs at 10000 uM GlcN6P values appear next to each entry.
B1: glmS ribozyme (parent)
chain: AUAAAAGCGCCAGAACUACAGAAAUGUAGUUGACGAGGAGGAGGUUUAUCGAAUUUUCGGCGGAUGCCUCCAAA

Variants of: B1
assay_notes: self-cleavage kobs at 10000 uM GlcN6P; higher = faster cleavage; RNA array
run_parameters: with glucosamine-6-phosphate
Variants at the floor of the assay were thinned out.

sequence_data	self-cleavage kobs at 10000 uM GlcN6P
AUAAAAGCGCCAGAACUACAGAAAUGUAGUUGACGAGGAGGAGGUUUAUCGACUUUUCGGGGGAUGCCUCCAAA	< 1e-05 s⁻¹
AUAAAAGUGCCACAACUACAGAAAUGUAGUUGACGAGGAGGAGGUUUAUCGAAUUUUCGGCGGAUGCCUCCAAA	< 1e-05 s⁻¹
AUAAAAGCGCCAGAACUACAGAAAUGUAGUUGACGAGGAGGAGGUUUAUCGAAUUUUCGUCGGAUGCCACCAAA	< 1e-05 s⁻¹
AUAAAGGCGCCGGAACUACAGAAAUGUAGUUGACGAGGAUGAGGUUCAUCGAAUUUUCGGCGGAUGCCUCCAAA	< 1e-05 s⁻¹
AUAAAAGCGCCAGAACUACAGAAAUGUAGUUGACGAGGAGAAGGUUUAUCGAAUUUUCGGAGGAUGCGUCCAAA	< 1e-05 s⁻¹
AUAAAAGCGCCAGAACUACAGAAAUGUAGUUGACGAGGAGGAGGUUUAUCUAUAUUUCGGCGGAUGCCUCCAAA	< 1e-05 s⁻¹
